Some compounds, each annotated with its measured pIC50.
test_system: human PDE5 (Homo sapiens, UniProt O76074)
assay_remarks: Inhibition of the type 5 phosphodiesterase (PDE5) activity, modified SPA test with platelet lysate
protocol_conditions: PDE5 from human platelet lysate, 0.5 μM cGMP
pIC50: −log10 of the molar value.
recorded_metric: pIC50

compound="CCOC(=O)N1CC[C@@H](NC(=O)c2c[nH]c3c(-c4c(OCC5CC5)ccc5c4OCO5)ncnc23)C1 [Example 17]" numeric_value=9.47
compound="CCOC(=O)N1CC(NC(=O)c2c[nH]c3c(-c4c(OCC5CC5)ccc5c4OCO5)ncnc23)C1 [Example 42]" numeric_value=9.72
compound="C[C@H](O)C(=O)N1CCC[C@@H](NC(=O)c2c[nH]c3c(-c4c(OCC5CC5)ccc5c4OCO5)ncnc23)C1 [Example 198]" numeric_value=9.21
compound="COc1cc(OCC2CC2)c(-c2ncnc3c(C(=O)N[C@H]4CC[C@H](NC(=O)CO)CC4)c[nH]c23)cc1F [Example 233]" numeric_value=9.12
compound="CCOC(=O)N1CCC(NC(=O)c2c[nH]c3c(-c4c(OCC)ccc5c4OCO5)ncnc23)CC1 [Example 134]" numeric_value=9.46
compound="CCOC(=O)N[C@H]1CC[C@H](NC(=O)c2c[nH]c3c(-c4ccc(OC)cc4OCC4CC4)ncnc23)CC1 [Example 54]" numeric_value=9.38
compound="O=C(CO)N[C@H]1CC[C@H](NC(=O)c2c[nH]c3c(-c4cc(F)ccc4OCC4CC4)ncnc23)CC1 [Example 222]" numeric_value=8.72

====

test_system: human PDE5 (Homo sapiens, UniProt O76074)
assay_remarks: Inhibition of the type 5 phosphodiesterase (PDE5) activity, modified SPA test with platelet lysate
protocol_conditions: PDE5 from human platelet lysate, 0.5 μM cGMP
Some compounds, each annotated with its measured log10 IC50.
recorded_metric: log10 IC50 (log10 of the value in pM)

chemical_structure=CCCCOc1ccc2c(c1-c1ncnc3c(C(=O)NC4CCN(C(=O)CC)CC4)c[nH]c13)OCO2 test_system="human PDE5 (Homo sapiens, UniProt O76074)" recorded_metric="log10 IC50" numeric_value=2.06
chemical_structure=COCC(=O)N1CCC(CNC(=O)c2c[nH]c3c(-c4c(OCC5CC5)ccc5c4OCO5)ncnc23)CC1 test_system="human PDE5 (Homo sapiens, UniProt O76074)" recorded_metric="log10 IC50" numeric_value=2.66
chemical_structure=C[C@H](O)C(=O)N1CCC(NC(=O)c2c[nH]c3c(-c4ccccc4OCC4CC4)ncnc23)CC1 test_system="human PDE5 (Homo sapiens, UniProt O76074)" recorded_metric="log10 IC50" numeric_value=4.15
chemical_structure=CCC(=O)N1CCC[C@H](NC(=O)c2c[nH]c3c(-c4c(OCC5CC5)ccc5c4OCO5)ncnc23)C1 test_system="human PDE5 (Homo sapiens, UniProt O76074)" recorded_metric="log10 IC50" numeric_value=2.90
chemical_structure=COCCOc1cc(OC)ccc1-c1ncnc2c(C(=O)N[C@H]3CC[C@H](NC(=O)CO)CC3)c[nH]c12 test_system="human PDE5 (Homo sapiens, UniProt O76074)" recorded_metric="log10 IC50" numeric_value=4.13
chemical_structure=O=C(N[C@H]1CC[C@H](NC(=O)C2CC2)CC1)c1c[nH]c2c(-c3ccccc3OCC3CC3)ncnc12 test_system="human PDE5 (Homo sapiens, UniProt O76074)" recorded_metric="log10 IC50" numeric_value=3.40
chemical_structure=CCC(=O)N1CCC(NC(=O)c2c[nH]c3c(-c4c(OCC5CC5)ccc5c4OCO5)ncnc23)CC1 test_system="human PDE5 (Homo sapiens, UniProt O76074)" recorded_metric="log10 IC50" numeric_value=1.89

====

Some molecules, each annotated with its measured IC50.
test_system: human PDE5 (Homo sapiens, UniProt O76074)
assay_remarks: Inhibition of the type 5 phosphodiesterase (PDE5) activity, modified SPA test with platelet lysate
protocol_conditions: PDE5 from human platelet lysate, 0.5 μM cGMP
recorded_metric: IC50

chemical_structure=CC(=O)c1cc(-c2ncnc3c(C(=O)NC4CCN(C(=O)[C@H](C)O)CC4)c[nH]c23)c(OCC2CC2)cc1C result="0.324 nM"
chemical_structure=COCCOc1cc(OC)ccc1-c1ncnc2c(C(=O)NC3CCN(C(=O)COC)CC3)c[nH]c12 result="23.4 nM"
chemical_structure=CCOc1ccc2c(c1-c1ncnc3c(C(=O)N[C@@H]4CCN(C(=O)COC)C4)c[nH]c13)OCO2 result="6.03 nM"
chemical_structure=COc1cc(OCC2CC2)c(-c2ncnc3c(C(=O)N[C@@H]4CCCN(C(C)=O)C4)c[nH]c23)cc1F result="0.2 nM"

====

test_system: human PDE5 (Homo sapiens, UniProt O76074)
Construct: from tissue; host or cells: platelets from fresh blood of human donors (lysate, 10,000 g supernatant)
assay_remarks: Inhibition of the type 5 phosphodiesterase (PDE5) activity, modified SPA test with platelet lysate
Assay type: biochemical
protocol_conditions: PDE5 from human platelet lysate, 0.5 μM cGMP
Some molecules, each annotated with its measured log10(IC50).
recorded_metric: log10(IC50) (log10 of the value in nM)

chemical_structure=CCOC(=O)N[C@H]1CC[C@@H](NC(=O)c2c[nH]c3c(-c4ccc(OC)cc4OCC4CC4)ncnc23)CC1 test_system="human PDE5 (Homo sapiens, UniProt O76074)" numeric_value=-0.47
chemical_structure=COCC(=O)N[C@H]1CC[C@@H](NC(=O)c2c[nH]c3c(-c4c(OCC5CC5)ccc5c4OCO5)ncnc23)CC1 test_system="human PDE5 (Homo sapiens, UniProt O76074)" numeric_value=0.06
chemical_structure=C[C@H](O)C(=O)N1CCC(NC(=O)c2c[nH]c3c(-c4cc(F)c(O)cc4OCC4CC4)ncnc23)CC1 test_system="human PDE5 (Homo sapiens, UniProt O76074)" numeric_value=2.40
chemical_structure=CCOc1ccc2c(c1-c1ncnc3c(C(=O)NC4CCN(C(=O)COC)CC4)c[nH]c13)OCO2 test_system="human PDE5 (Homo sapiens, UniProt O76074)" numeric_value=0.30
chemical_structure=COc1ccc(-c2ncnc3c(C(=O)N[C@H]4CC[C@@H](NC(=O)C5CC5)CC4)c[nH]c23)c(OCC2CC2)c1 test_system="human PDE5 (Homo sapiens, UniProt O76074)" numeric_value=-0.55
chemical_structure=O=C(CO)N[C@H]1CC[C@@H](NC(=O)c2c[nH]c3c(-c4ccc(F)cc4OCC4CC4)ncnc23)CC1 test_system="human PDE5 (Homo sapiens, UniProt O76074)" numeric_value=0.42
chemical_structure=CC(=O)N1CCC(NC(=O)c2c[nH]c3c(-c4c(OCC5CCC5)ccc5c4OCO5)ncnc23)CC1 test_system="human PDE5 (Homo sapiens, UniProt O76074)" numeric_value=-0.41

====

test_system: human PDE5 (Homo sapiens)
assay_remarks: Inhibition of the type 5 phosphodiesterase (PDE5) activity, modified SPA test with platelet lysate
protocol_conditions: PDE5 from human platelet lysate, 0.5 μM cGMP
Some molecules, each annotated with its measured IC50.
recorded_metric: IC50 (nM)

molecule="CCCOc1ccc2c(c1-c1ncnc3c(C(=O)NC4CCN(C(=O)CC)CC4)c[nH]c13)OCO2 [Example 139]" test_system="human PDE5 (Homo sapiens)" readout_units=nM numeric_value=0.204
molecule="COc1cc(OCC2CC2)c(-c2ncnc3c(C(=O)N[C@@H]4CCN(C(=O)CO)C4)c[nH]c23)cc1F [Example 241]" test_system="human PDE5 (Homo sapiens)" readout_units=nM numeric_value=1.35
molecule="CCC(=O)N1CCC(NC(=O)c2c[nH]c3c(-c4cc(F)c(O)cc4OCC4CC4)ncnc23)CC1 [Example 278]" test_system="human PDE5 (Homo sapiens)" readout_units=nM numeric_value=57.5
molecule="CCOC(=O)N1CCC(NC(=O)c2c[nH]c3c(-c4cc(OC)ccc4OCC4CC4)ncnc23)CC1 [Example 74]" test_system="human PDE5 (Homo sapiens)" readout_units=nM numeric_value=0.55
molecule="O=C(N[C@H]1CC[C@H](C(=O)NC2CC2)CC1)c1c[nH]c2c(-c3cc(F)ccc3OCC3CC3)ncnc12 [Example 273]" test_system="human PDE5 (Homo sapiens)" readout_units=nM numeric_value=2.19
molecule="O=C(N[C@H]1CCN(C(=O)C2(O)CC2)C1)c1c[nH]c2c(-c3c(OCC4CC4)ccc4c3OCO4)ncnc12 [Example 185]" test_system="human PDE5 (Homo sapiens)" readout_units=nM numeric_value=2.04
molecule="CCCCOc1ccc2c(c1-c1ncnc3c(C(=O)NC4CCN(C=O)CC4)c[nH]c13)OCO2 [Example 146]" test_system="human PDE5 (Homo sapiens)" readout_units=nM numeric_value=0.229
molecule="COc1cc(OCC2CC2)c(-c2ncnc3c(C(=O)N[C@H]4CCCN(C(=O)[C@H](C)O)C4)c[nH]c23)cc1F [Example 239]" test_system="human PDE5 (Homo sapiens)" readout_units=nM numeric_value=2.51
molecule="COCCOc1ccc2c(c1-c1ncnc3c(C(=O)NC4CCN(C(=O)[C@H](C)O)CC4)c[nH]c13)OCO2 [Example 263]" test_system="human PDE5 (Homo sapiens)" readout_units=nM numeric_value=10
molecule="COc1ccc(OCC2CC2)c(-c2ncnc3c(C(=O)NC4CCN(C(=O)C5(O)CC5)CC4)c[nH]c23)c1 [Example 213]" test_system="human PDE5 (Homo sapiens)" readout_units=nM numeric_value=0.55
molecule="O=C(NCC1CCN(C(=O)CO)C1)c1c[nH]c2c(-c3c(OCC4CC4)ccc4c3OCO4)ncnc12 (stereo not drawn) [Example 191]" test_system="human PDE5 (Homo sapiens)" readout_units=nM numeric_value=1.02
molecule="CCC(=O)N1CCCC(CNC(=O)c2c[nH]c3c(-c4c(OCC5CC5)ccc5c4OCO5)ncnc23)C1 (stereo not drawn) [Example 29]" test_system="human PDE5 (Homo sapiens)" readout_units=nM numeric_value=0.275
molecule="COc1cc(OCC2CC2)c(-c2ncnc3c(C(=O)N[C@H]4CC[C@H](NC(=O)[C@H](C)O)CC4)c[nH]c23)cc1F [Example 234]" test_system="human PDE5 (Homo sapiens)" readout_units=nM numeric_value=0.977
molecule="COCC(=O)N[C@H]1CC[C@@H](NC(=O)c2c[nH]c3c(-c4ccc(F)cc4OCC4CC4)ncnc23)CC1 [Example 76]" test_system="human PDE5 (Homo sapiens)" readout_units=nM numeric_value=2.4
molecule="CCOC(=O)N[C@H]1CC[C@H](NC(=O)c2c[nH]c3c(-c4c(OCC5CC5)ccc5c4OCO5)ncnc23)CC1 [Example 6]" test_system="human PDE5 (Homo sapiens)" readout_units=nM numeric_value=0.0851
